Molecular target: TGF-beta receptor type-1 [4-503,T204D] (Homo sapiens, UniProt P36897, T204D)
Construct: 4-503
Assay: Enzyme Assay and Luciferase Reporter Assay
Conditions: pH 7.5; 30 °C
Labelling field: enter class 1 if recorded EC50 is less than 0.06 µM. Enter class 0 if it equals or exceeds that cut-off.

• O=C(O)c1ccc(Oc2ccc3c(-c4c(-c5ccccn5)nn5c4CCC5)ccnc3c2)cc1 = class 0
• Cc1cccc(-c2nn3c(c2-c2ccnc4ccc(Br)cc24)CCC3)n1 = class 1
• CN1CCCC1CCCOc1ccc2c(-c3c(-c4ccccn4)nn4c3CCC4)ccnc2c1 (stereo not given) = class 1
• ClCCOc1ccc2c(-c3c(-c4ccccn4)nn4c3CCC4)ccnc2c1 = class 0
• COC(=O)c1ccc2nccc(-c3c(-c4cccc(C)n4)nn4c3CCC4)c2c1 = class 0
• c1ccc(-c2nn3c(c2-c2cc(N4CCCC4)nc4ccccc24)CCC3)nc1 = class 0
• CN1CCN(C(=O)COc2ccc3c(-c4c(-c5ccccn5)nn5c4CCC5)ccnc3c2)CC1 = class 0
• CN(C)CCCCCOc1ccc2c(-c3c(-c4ccccn4)nn4c3CCC4)ccnc2c1 = class 1
• Oc1ccc2c(-c3c(-c4ccccn4)nn4c3CCC4)ccnc2c1 = class 0
